MEASURED_ON: GSK3a (GST-full length GSK3a) (Homo sapiens, UniProt P49840)
Construct: GST-full length GSK3a [SignalChem G08-10G]; purchased SignalChem G08-10G
Sequence (P49840 whole entry): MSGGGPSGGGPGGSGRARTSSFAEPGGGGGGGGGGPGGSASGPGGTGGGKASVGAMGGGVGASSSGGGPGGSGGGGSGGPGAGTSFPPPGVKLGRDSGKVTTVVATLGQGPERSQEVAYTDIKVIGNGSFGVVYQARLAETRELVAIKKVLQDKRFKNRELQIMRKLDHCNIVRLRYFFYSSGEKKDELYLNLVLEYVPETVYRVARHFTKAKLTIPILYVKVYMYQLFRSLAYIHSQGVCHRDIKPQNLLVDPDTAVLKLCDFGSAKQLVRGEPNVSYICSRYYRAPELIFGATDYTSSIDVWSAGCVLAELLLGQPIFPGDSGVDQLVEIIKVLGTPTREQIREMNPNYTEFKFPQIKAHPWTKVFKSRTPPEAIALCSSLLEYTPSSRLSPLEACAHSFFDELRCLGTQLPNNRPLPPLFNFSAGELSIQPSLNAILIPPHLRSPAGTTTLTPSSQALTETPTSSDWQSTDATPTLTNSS
ASSAY_EXPLANATION: GSK3a TR-FRET kinase inhibition assay
Format: biochemical
CONDITION_PARAMETERS: 1 mM ATP; Table 4; read-out: GSK3α TR-FRET 1 mM ATP GMean IC50
pIC50: −log10 of the molar value.
READOUT_KIND: pIC50

Q: Sample CCC1(c2cccc(-c3ccnc(C)c3C)c2)C2=C(CC(C)(C)CC2=O)Nc2ncccc21 (single isomer, unassigned) — what was its pIC50?
Result: 6.00 to 7.00

Q: Sample CCC1(c2cccc(-c3ccnc4c3CCCC4)c2)C2=C(CC(C)(C)CC2=O)Nc2ncc(F)cc21 (single isomer, unassigned) [Compound 165B] — what was its pIC50?
Result: 6.00 to 7.00

Q: Sample CCC1(c2cccc(-c3cn(C)nc3C)c2)C2=C(CC(C)(C)CC2=O)Nc2ncccc21 (single isomer, unassigned) [Compound 1023A] — what was its pIC50?
Result: 6.00 to 7.00

Source of measurements: patent US20260103465A1
